Numbers sourced from the nanobody polyreactivity screen of Harvey et al. (2022).

# TEST_SUMMARY: yeast display, Sf9 membrane polyspecificity reagent, FACS + sequencing; frameworks hold sequencing errors
MEASURED_ENDPOINT: polyreactivity (PSR sort gate)

QVQLVESGGGLVQAGGSLRLSCAASGVIFGAYAMGWYRQAPGKERELVAAISSRGTSTYYADSVKGRFTISRDNAKNTVYLQMNSLKPEDTAVYYCNVYYIPLRRYDYWGQGTQVTVSS ... high polyreactivity
QVQLVESGGGLVQAGGSLRLSCAASGSTFVGNAMGWYRQAPGKERELVAAISRGGGRTYYADSVKGRFTISRDNAKNTVYLQMNSLKPEDTAVYYCNADVYHRAWHLDYWGQGTQVTVSS ... high polyreactivity

###

# TEST_SUMMARY: yeast display, Sf9 membrane polyspecificity reagent, FACS + sequencing; frameworks hold sequencing errors
MEASURED_ENDPOINT: polyreactivity (PSR sort gate)

QVQLVESGGGLVQAGGSLRLSCAASGSIFIRYAMGWYRQAPGKERELVASISRSGGSTYYADSVKGRFTISRDNAKNTVYLQMNSLKPEDTAVYYCAARRVRPNGYTSSPLDYWGQGTQVTVSS ... high polyreactivity
QVQLVESGGGLVQAGGSLRLSCAASGRTFATNTMGWSRQAPGKERELVAAITFSGGSTYYADSVKGRFTISRDNAKNTVYLQMNSLKPEDTAVYYCNVRSPYYSYRYRYGYWGQGTQVTVSS ... high polyreactivity
QVQLVESGGGLVQAGGSLRLSCAASGLIFVVYAMGWYRQAPGKERELVAAISRSGGRTYYADSVKGRFTISRDNAKNTVYLQMNSLKPEDTAVYYCAARRYSTTFGRLFDYWGQGTQVTVSS ... high polyreactivity

###

# TEST_SUMMARY: yeast display, Sf9 membrane polyspecificity reagent, FACS + sequencing; frameworks hold sequencing errors
MEASURED_ENDPOINT: polyreactivity (PSR sort gate)

Example cases with answers are listed next.
QVQLQESGGGLVQAGGSLRLSCAASGSIFQYGYMGWYRQAPGKEREFVAGIGGGTSNYADSVKGRFTISRDNAKNTVYLQMNSLKPEDTAVYYCNTDAGDYYGENYWGQGTQVTVSS ... low polyreactivity
QVQLVESGGGLVQAGGSLRLSCAASGSISYIYTMGWYRQAPGKERELVAAISGSGSTYYADSVKGRFTISRDNAKNTVYLQMNSLKPEDTAVHYCNAGSGGLNFQEVPQGYDYWGQGTQVTVSS ... low polyreactivity
QVQLVESGAGLVQAGGSLRISCAASGFTFAYYAMGWYRQAPGKEREFVAAITKGGGSTNYADSVKGRFTISRYNAKNTVYLQMNSLNPEDTAVYYCNADYFVWYIGRVFSRYGYWGQGTQVTVSS ... low polyreactivity
QVQLVESGGGLVQAGGSLRLSCAASGSIFGSYAMGWYRQAPGKERELVAAISYRGGRTYYADSVKGRFTISRDNAKNSVYLQMNSLKPEDTAVYYCNARARNSPPYDYWGQGTQVTVSS ... high polyreactivity
QVQLVESGGGLVQAGGSLRLSCVASGLTQPYAMGWYRQAPGKERELVAAISSSGGRTSYADSVKGRFTISRDNAKNTVYLQMNSLKPEDTAVYYCNVDLGVNGDYWGQGTQVTVSS ... low polyreactivity
QVQLVESGGGLVQAGGSLRLSCAASGSIFVDNAMGWYRQAPGKEREMVAAISRRGGSTYYADSVKGRFTISRDNAKNTVYLQMNSLKPEDTAVYYCNKKNIQFYQGASDYWGQGTQVTVSS ... high polyreactivity

Please go through the list and note polyreactivity (PSR sort gate) for each sequence.
1. QVQLVESGGGLVQAGGSLRLSCAASGRIYDGYAMGWYRQAPGKERELVATISSGGSTYYADSVKGRFTISRDNAKNNVYLQMNSLKPEDTAVYYCAADSWVQFDYWGQGTQVTVSS
2. PVQLVESGGGLVQAGGSLSLTCAASGIIFPVYAMGWYIQAPGKERELVAAITYSGDRTYYADSVKGRFTISRDNAKYTVYLQMNSLKPEDTAVDYFNARFGVWPYFYNEDDYLGQGTQVTVSS
3. QVKLVESAGGLVQAGCSLRLSCAASGSIFLKNAKGWYRQSPGKERELVAGITTRGSTYYADSVKGRFTISRDNAKNTVYLQMNSLKPEDTAVYYCAKRDVGYQTRYFYWGQGTQVTVSS

Reply:
low polyreactivity
low polyreactivity
high polyreactivity

Ask: Query: polyreactivity (PSR sort gate); subject: QVQLVESGGGLVQAGGSLRLSCAASGFTFGSNAMGWYRQAPGKERELVATISRRGGRTYYADSVKGRFTISRDNAKNTVYLQMNSLKPEDTAVYYCAADRSRPGYDYWGQGTQVTVSS
Reply: high polyreactivity
